IC50 tested on Acetylcholinesterase (Electrophorus electricus, UniProt O42275): recorded values
Sequence (O42275 whole entry): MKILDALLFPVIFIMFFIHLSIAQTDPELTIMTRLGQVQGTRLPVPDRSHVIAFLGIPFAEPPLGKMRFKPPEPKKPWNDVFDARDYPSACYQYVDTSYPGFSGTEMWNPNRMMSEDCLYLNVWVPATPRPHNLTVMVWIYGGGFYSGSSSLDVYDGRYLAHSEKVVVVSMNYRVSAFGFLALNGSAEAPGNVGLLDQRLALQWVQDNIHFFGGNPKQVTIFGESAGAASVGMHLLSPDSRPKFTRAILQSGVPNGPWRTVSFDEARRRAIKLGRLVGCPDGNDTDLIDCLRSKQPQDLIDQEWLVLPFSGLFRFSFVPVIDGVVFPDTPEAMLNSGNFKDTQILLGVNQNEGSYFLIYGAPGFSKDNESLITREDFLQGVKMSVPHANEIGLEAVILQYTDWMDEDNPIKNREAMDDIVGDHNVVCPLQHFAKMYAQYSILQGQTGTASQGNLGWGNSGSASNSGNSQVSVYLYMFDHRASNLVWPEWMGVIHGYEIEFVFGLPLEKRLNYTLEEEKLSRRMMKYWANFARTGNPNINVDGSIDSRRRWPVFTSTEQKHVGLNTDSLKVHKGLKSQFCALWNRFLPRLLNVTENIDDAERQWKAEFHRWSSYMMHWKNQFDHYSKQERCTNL
Quick note: give the figure in µM, leave out the unit.

The compound COc1cc(/C=C/c2ccc(OCC(=O)NCCCCCCN(C)Cc3ccccc3OC)cc2)cc(OC)c1 , tested on Acetylcholinesterase (Electrophorus electricus, UniProt O42275), showed IC50 of 4.92

The compound CCN(CCCCNC(=O)COc1ccc(/C=C/c2cc(OC)cc(OC)c2)cc1)Cc1ccccc1 , tested on Acetylcholinesterase (Electrophorus electricus, UniProt O42275), showed IC50 of 2.86

The compound CCN(CCNC(=O)COc1ccc(/C=C/c2cc(OC)cc(OC)c2)cc1)Cc1ccccc1OC , tested on Acetylcholinesterase (Electrophorus electricus, UniProt O42275), showed IC50 of 17.5

The compound CCN(CCCCCCNC(=O)COc1ccc(/C=C/c2cc(OC)cc(OC)c2)cc1)Cc1ccccc1 , tested on Acetylcholinesterase (Electrophorus electricus, UniProt O42275), showed IC50 of 3.29

The compound CCN(CCCNC(=O)COc1ccc(/C=C/c2cc(OC)cc(OC)c2)cc1)Cc1ccccc1 , tested on Acetylcholinesterase (Electrophorus electricus, UniProt O42275), showed IC50 of 8.22

The compound COc1cc(/C=C/c2ccc(OCC(=O)NCCCCN(C)Cc3ccccc3)cc2)cc(OC)c1 , tested on Acetylcholinesterase (Electrophorus electricus, UniProt O42275), showed IC50 of 9.61

The compound CCN(CCCNC(=O)COc1ccc(/C=C/c2cc(OC)cc(OC)c2)cc1)Cc1ccccc1OC , tested on Acetylcholinesterase (Electrophorus electricus, UniProt O42275), showed IC50 of 2.69

The compound COc1cc(/C=C/c2ccc(OCC(=O)NCCCCCCN(C)Cc3ccccc3)cc2)cc(OC)c1 , tested on Acetylcholinesterase (Electrophorus electricus, UniProt O42275), showed IC50 of 20.7

The compound COc1cc(/C=C/c2ccc(OCC(=O)NCCCN(C)Cc3ccccc3OC)cc2)cc(OC)c1 , tested on Acetylcholinesterase (Electrophorus electricus, UniProt O42275), showed IC50 of 8.52
